Cited source for all entries: paper PMC7826789

Catalogue of Percent Control values
- Tested on: ERK4
- Construct: gene MAPK4
- Test Conditions: Compound Concentration (nM):1000;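 also: KINOMEscan scanMAX binding as percent activity remaining versus control; lower means stronger binding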

{"Compound": "NS(=O)(=O)c1ccc(N/N=C2\\C(=O)Nc3ccc(C(=O)NCc4ccncc4)cc32)cc1 [GW300657X]", "Unit": "%", "Percent Control": 100}
{"Compound": "Nc1ncnc2occ(-c3ccc(NC(=O)Nc4cc(C(F)(F)F)ccc4F)cc3)c12 [GW770249X]", "Unit": "%", "Percent Control": 100}
{"Compound": "COc1cc(C=NNc2ncnc3c2cnn3-c2ccccc2)ccc1O [GW513184X]", "Unit": "%", "Percent Control": 37}
{"Compound": "COc1cc2ncn(-c3cc(O[C@H](C)c4ccccc4Cl)c(C(N)=O)s3)c2cc1OC [GSK237701A]", "Unit": "%", "Percent Control": 100}
{"Compound": "CCn1c(-c2nonc2N)nc2c(C#CC(C)(C)O)nc(OCCNC)cc21.Cl", "Unit": "%", "Percent Control": 100}
{"Compound": "CCS(=O)(=O)c1ccc(OC)c(Nc2ncc(-c3cccc(OC)c3)o2)c1 [GW580509X]", "Unit": "%", "Percent Control": 100}

----------
Listing of entries alongside the reported Percent Control.
- System: TGFBR1
- Test Conditions: Compound Concentration (nM):1000

{"Compound": "C[C@@H](Oc1cc(-n2cnc3ccc(OC4CCN(C)CC4)cc32)sc1C(N)=O)c1ccccc1Cl [GSK579289A]", "Unit": "%", "Percent Control": 100}
{"Compound": "CC1=C(C(=O)Nc2ccc3[nH]ncc3c2)C(c2ccc3ccccc3c2)CC(=O)N1 (stereo not shown) [GSK270822A]", "Unit": "%", "Percent Control": 85}
{"Compound": "COC(=O)Nc1nc2ccc(Oc3ccc(NC(=O)Nc4cc(C(F)(F)F)ccc4F)cc3)cc2s1.Cl [GW693917A]", "Unit": "%", "Percent Control": 100}
{"Compound": "NS(=O)(=O)c1ccc(N/N=C2\\C(=O)Nc3ccc(Cl)cc32)cc1 [GW280670X]", "Unit": "%", "Percent Control": 100}

----------
- Test system: SBK1
- Test Conditions: Compound Concentration (nM):1000
# Percent Control values compiled below
Reported Endpoint: Percent Control (%)

{"Compound": "COc1ccc2[nH]c3c4[nH]c5ccc(OC)cc5c4c4c(c3c2c1)C(=O)NC4=O [GW296115X]", "Numeric Result": 95}
{"Compound": "COc1ccc(COc2ccc(Cc3cnc(N)nc3N)cc2OC)cc1 [GW632580X]", "Numeric Result": 100}
{"Compound": "CC1=C(C(=O)Nc2ccc3[nH]ncc3c2)C(c2ccc(Cl)c(Cl)c2)CC(=O)N1 (centres unmarked) [GSK299115A]", "Numeric Result": 73}
{"Compound": "COc1cc(C)c(N(C)C(=O)CN(C)C)cc1Nc1nc(Nc2cccc(F)c2C(N)=O)c2cc[nH]c2n1", "Numeric Result": 100}
{"Compound": "CN1CCN(C(=O)c2ccc(NC(=O)Nc3ccc(N(C)c4ccnc(Nc5ccc(CS(C)(=O)=O)cc5)n4)cc3)cc2)CC1.Cl [GW830263A]", "Numeric Result": 65}
{"Compound": "C[C@@H](Oc1cc(-n2cnc3ccc(OC4CCN(C)CC4)cc32)sc1C(N)=O)c1ccccc1Cl [GSK579289A]", "Numeric Result": 62}
{"Compound": "O=C1Nc2ccc(C(=O)c3ccco3)cc2C1=Cc1cc(Cl)c(O)c(Cl)c1 [GW406108X]", "Numeric Result": 100}
{"Compound": "COc1ccccc1-c1cc(/C=C2\\C(=O)Nc3ncc(Br)cc32)cc(Br)c1O [GW442130X]", "Numeric Result": 95}
